test system: SARS-CoV-2; test: microbe, parasite or virus in culture; type: cell-based; conditions: Severe acute respiratory syndrome coronavirus 2, Caco-2
Consider the following compounds; for each one, report its EC50.
Answers are plain numbers, in µM.

smiles_notation: CCN(CC)CCN(Cc1ccc(-c2ccc(C(F)(F)F)cc2)cc1)C(=O)Cn1c(SCc2ccc(F)cc2)nc(=O)c2c1CCC2
unit_descriptor: µM
EC50: 3.2

Indicate its recorded EC50; the compound in question is c1cc(OCCCN2CCCCC2)ccc1CN1CCCCC1
1

* * *

Can you tell me CC50 for the items I'm about to list?
assay: in vitro; conditions: hamster
One number for each entry, in µM.

Example compounds with recorded CC50:
compound: CCN(CC)CCN(Cc1ccc(-c2ccc(C(F)(F)F)cc2)cc1)C(=O)Cn1c(SCc2ccc(F)cc2)nc(=O)c2c1CCC2 [Darapladib]
CC50 [µM]: 11.2
--
compound: CCC(CC)COC(=O)[C@H](C)N[P@](=O)(OC[C@H]1O[C@@](C#N)(c2ccc3c(N)ncnn23)[C@H](O)[C@@H]1O)Oc1ccccc1 [Remdesivir]
CC50 [µM]: 70.7

Now consider a different compound.
Provide measured CC50 value, entry: c1cc(OCCCN2CCCCC2)ccc1CN1CCCCC1 [JNJ-5207852]
69.3
